Values from ChEMBL document CHEMBL5532744

Experiment: Tmax in rat at 10 mg/kg, po or 2 mg/kg, iv
Type: ADME, organism-based
Settings: in vivo
metric: Tmax (h)

{"columns": ["structure", "metric", "recorded-number"],
 "data": [
  ["NS(=O)(=O)c1cccc(NC(=O)c2cc(C(F)(F)F)cnc2N2CCC(F)(F)CC2)c1", "Tmax", 2.5]
]}

----------
Assay: Clearance in rhesus monkey at 1 mg/kg, iv
Format: ADME, organism-based, Macaca mulatta
Conditions: in vivo

{"columns": ["structure", "clearance, mL/min/kg"],
 "data": [
  ["NS(=O)(=O)c1cccc(NC(=O)c2cc(C(F)(F)F)cnc2N2CCC(F)(F)CC2)c1", 3.15]
]}
